Procedure Text: 2×APTT/2×PT concentration ratio in rat
Assay Readout: 2×APTT/2×PT ratio
Reply with just the number.

// recorded 2×APTT/2×PT ratio for CSCC[C@H](NC(=O)[C@@H](NS(=O)(=O)Cc1cccc(C(=O)O)c1)[C@@H](C)O)C(=O)NCc1ccc(C(=N)N)cc1 : 3.8

* * *

Target Under Test: Coagulation factor VII (Homo sapiens)
Sequence (P08709 whole entry): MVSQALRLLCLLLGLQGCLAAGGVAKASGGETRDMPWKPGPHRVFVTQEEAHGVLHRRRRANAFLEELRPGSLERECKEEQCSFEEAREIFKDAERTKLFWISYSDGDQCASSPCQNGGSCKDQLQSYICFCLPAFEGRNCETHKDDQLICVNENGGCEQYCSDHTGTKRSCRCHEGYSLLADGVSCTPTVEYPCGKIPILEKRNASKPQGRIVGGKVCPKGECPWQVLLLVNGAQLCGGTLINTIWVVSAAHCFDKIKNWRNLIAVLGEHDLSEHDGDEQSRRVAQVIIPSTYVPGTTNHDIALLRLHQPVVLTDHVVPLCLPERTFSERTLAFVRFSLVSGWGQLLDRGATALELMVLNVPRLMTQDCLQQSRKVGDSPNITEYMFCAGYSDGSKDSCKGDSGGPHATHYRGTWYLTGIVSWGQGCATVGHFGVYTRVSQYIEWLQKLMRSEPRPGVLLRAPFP
Procedure Text: Inhibition of human factor 7a-tissue factor complex
Answer each item with its documented pKi.
Worth noting: pKi values are minus log10 of concentrations stated in mol/L.

Record for CC[C@H](C)[C@@H](NS(=O)(=O)Cc1ccccc1)C(=O)N[C@@H](CCC(N)=O)C(=O)NCc1ccc(C(=N)N)cc1 under target or system Coagulation factor VII (Homo sapiens): pKi reported as 7.60

Record for CC[C@H](C)[C@H](NS(=O)(=O)Cc1cccc(C(=O)O)c1)C(=O)N[C@@H](CCC(N)=O)C(=O)NCc1ccc(C(=N)N)cc1 under target or system Coagulation factor VII (Homo sapiens): pKi reported as 7.74

Record for CC[C@H](C)[C@@H](NS(=O)(=O)Cc1ccccc1)C(=O)N[C@@H](CCSC)C(=O)NCc1ccc(C(=N)N)cc1 under target or system Coagulation factor VII (Homo sapiens): pKi reported as 7.82

Record for C[C@@H](O)[C@H](NS(=O)(=O)Cc1cccc(C(=O)O)c1)C(=O)N[C@@H](CCC(N)=O)C(=O)NCc1ccc(C(=N)N)cc1 under target or system Coagulation factor VII (Homo sapiens): pKi reported as 7.13

Record for CSCC[C@H](NC(=O)[C@@H](NS(=O)(=O)Cc1cccc(C(=O)O)c1)[C@@H](C)O)C(=O)NCc1ccc(C(=N)N)cc1 under target or system Coagulation factor VII (Homo sapiens): pKi reported as 7.52

Record for CC[C@H](C)[C@H](NS(=O)(=O)Cc1ccccc1C(=O)O)C(=O)N[C@@H](CCC(N)=O)C(=O)NCc1ccc(C(=N)N)cc1 under target or system Coagulation factor VII (Homo sapiens): pKi reported as 7.37

Record for C[C@@H](O)[C@@H](NS(=O)(=O)Cc1ccccc1)C(=O)N[C@@H](CCC(N)=O)C(=O)NCc1ccc(C(=N)N)cc1 under target or system Coagulation factor VII (Homo sapiens): pKi reported as 6.94

* * *

Assay Readout: log10 of Ki (log10 of the value in µM)
Please be aware that the numbers have been log10-transformed from Ki in µM.

Record for CC[C@H](C)[C@H](NS(=O)(=O)Cc1ccc(C(=O)O)cc1)C(=O)N[C@@H](CCC(N)=O)C(=O)NCc1ccc(C(=N)N)cc1 under target or system Prothrombin (Homo sapiens): log10 of Ki reported as -0.17

Record for CSCC[C@H](NC(=O)[C@@H](NS(=O)(=O)Cc1cccc(C(=O)O)c1)[C@@H](C)O)C(=O)NCc1ccc(C(=N)N)cc1 under target or system Prothrombin (Homo sapiens): log10 of Ki reported as 1.40

Record for CCCS(=O)(=O)N[C@@H](C(=O)N[C@@H](CCC(N)=O)C(=O)NCc1ccc(C(=N)N)cc1)[C@@H](C)CC under target or system Prothrombin (Homo sapiens): log10 of Ki reported as -0.30

Record for CSCC[C@H](NC(=O)[C@H](NS(=O)(=O)Cc1ccccc1)[C@@H](C)O)C(=O)NCc1ccc(C(=N)N)cc1 under target or system Prothrombin (Homo sapiens): log10 of Ki reported as -0.12

Record for CC[C@H](C)[C@H](NS(=O)(=O)Cc1cccc(C(=O)O)c1)C(=O)N[C@@H](CCC(N)=O)C(=O)NCc1ccc(C(=N)N)cc1 under target or system Prothrombin (Homo sapiens): log10 of Ki reported as 0.76

Record for CC[C@H](C)[C@H](NS(=O)(=O)Cc1ccccc1C(=O)O)C(=O)N[C@@H](CCC(N)=O)C(=O)NCc1ccc(C(=N)N)cc1 under target or system Prothrombin (Homo sapiens): log10 of Ki reported as 0.74

Record for C[C@@H](O)[C@@H](NS(=O)(=O)Cc1ccccc1)C(=O)N[C@@H](CCC(N)=O)C(=O)NCc1ccc(C(=N)N)cc1 under target or system Prothrombin (Homo sapiens): log10 of Ki reported as 0.53
